tested on: MS2 coat protein; assay: apparent Kd, MS2 coat protein; higher = weaker binding; RNA-MaP array; tryptophan 2.4 mM where present; settings: ligand present: tryptophan; designed as: ON switch for tryptophan

# SEQUENCE_RECORD, TGT, UNIT_DESCRIPTOR, apparent Kd
data = [
    ("UACAUGAGGAUCACCCAUGUCCCAUGUGAACGAGGACCGGUACGGCCGCCACUCGACCGAGGCGGCACAUGAGGAUCACCCGCAU", "MS2 coat protein", "nM", 1580),
    ("AAUCAUGGAAACAUGACAUGAGGAUUACUCCGAGGACCGGUACGGCCGCCACUCGCGAGGAGGCGGACAUGAGGAUCACCCAUGU", "MS2 coat protein", "nM", 40.2),
    ("AGCACAUGAGGAUCACCCAUGUGUCGGUACCGAGGACCGGUACGGCCGCCACUCGCAGGACAUGAGGAUCACCCAUGUGCCGCCG", "MS2 coat protein", "nM", 25.4),
    ("GUCGGUACGUCGGCAAAGCCGAUGUGCCAGCGAGGACCGGUACGGCCGCCACUCGUACAUGAGGAUCACCCAUGUCCGGUCCGGC", "MS2 coat protein", "nM", 70.7),
]
